TARGET_ENTITY: UniProt:P11388
Sequence (P11388 whole entry, looked up, stated change not applied): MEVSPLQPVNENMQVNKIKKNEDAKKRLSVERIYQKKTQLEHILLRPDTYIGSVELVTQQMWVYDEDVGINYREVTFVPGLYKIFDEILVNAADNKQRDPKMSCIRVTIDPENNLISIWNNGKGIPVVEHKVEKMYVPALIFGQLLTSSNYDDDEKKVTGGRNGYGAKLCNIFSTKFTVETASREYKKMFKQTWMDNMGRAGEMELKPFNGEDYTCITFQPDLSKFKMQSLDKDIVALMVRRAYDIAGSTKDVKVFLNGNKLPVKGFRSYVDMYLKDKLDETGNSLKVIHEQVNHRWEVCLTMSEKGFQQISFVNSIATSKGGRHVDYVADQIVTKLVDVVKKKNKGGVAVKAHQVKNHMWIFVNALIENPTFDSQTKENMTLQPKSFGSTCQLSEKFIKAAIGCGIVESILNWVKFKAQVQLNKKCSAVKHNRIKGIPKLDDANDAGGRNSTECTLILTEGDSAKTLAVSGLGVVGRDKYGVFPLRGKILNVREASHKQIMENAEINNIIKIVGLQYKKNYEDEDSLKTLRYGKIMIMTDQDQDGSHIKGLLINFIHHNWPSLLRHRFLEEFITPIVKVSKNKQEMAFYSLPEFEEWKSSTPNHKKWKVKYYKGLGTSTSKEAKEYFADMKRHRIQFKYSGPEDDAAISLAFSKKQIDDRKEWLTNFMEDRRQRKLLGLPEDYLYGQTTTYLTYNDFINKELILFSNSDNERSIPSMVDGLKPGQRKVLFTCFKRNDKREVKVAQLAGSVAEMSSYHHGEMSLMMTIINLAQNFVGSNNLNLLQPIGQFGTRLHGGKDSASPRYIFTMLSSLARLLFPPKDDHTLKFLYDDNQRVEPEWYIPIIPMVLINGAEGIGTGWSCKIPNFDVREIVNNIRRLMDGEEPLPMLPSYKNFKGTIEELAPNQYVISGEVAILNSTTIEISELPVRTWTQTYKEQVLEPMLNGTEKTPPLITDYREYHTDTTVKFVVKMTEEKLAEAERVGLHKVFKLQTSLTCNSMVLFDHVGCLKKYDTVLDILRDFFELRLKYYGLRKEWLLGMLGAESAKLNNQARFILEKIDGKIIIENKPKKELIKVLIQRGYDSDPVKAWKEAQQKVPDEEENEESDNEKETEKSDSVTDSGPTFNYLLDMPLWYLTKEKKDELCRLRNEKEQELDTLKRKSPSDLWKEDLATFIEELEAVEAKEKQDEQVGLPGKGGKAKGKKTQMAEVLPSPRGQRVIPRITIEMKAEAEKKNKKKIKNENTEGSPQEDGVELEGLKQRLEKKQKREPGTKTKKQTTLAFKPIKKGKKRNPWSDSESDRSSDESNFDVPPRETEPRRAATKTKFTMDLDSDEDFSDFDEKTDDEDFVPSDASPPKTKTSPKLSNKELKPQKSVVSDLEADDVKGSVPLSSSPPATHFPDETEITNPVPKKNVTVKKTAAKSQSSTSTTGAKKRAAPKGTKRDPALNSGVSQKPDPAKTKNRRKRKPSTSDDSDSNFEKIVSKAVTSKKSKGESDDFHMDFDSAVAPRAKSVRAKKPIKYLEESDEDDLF
RUN_DESCRIPTION: Inhibition of 150 nM recombinant human topoisomerase-2alpha catalytic activity expressed in Saccharomyces cerevisiae JEL1 harboring topoisomerase1 deletion mutant assessed as reduction in enzyme-mediated relaxed pBR322 DNA strand passage after 2 mins in presence of APP(NH)P by ethidium bromide staining based agarose gel electrophoresis
pIC50: −log10 of the molar value.
VALUE_KIND: pIC50

Cl.Cl.Cl.Cl.NCCCNCCCCNCCCNCC(O)COc1cc(O)c2c(=O)c3ccccc3oc2c1 (configuration not stated) : > 5.00

Record NCCCCNCCCNCC(O)COc1cc(O)c2c(=O)c3ccccc3oc2c1 (configuration not stated) / UniProt:P11388, pIC50 recorded as > 5.00

Reference for the values: ChEMBL document CHEMBL4043227
